src = ChEMBL document CHEMBL1629529

# protocol description: Selectivity index, ratio of CC50 for human TZM-bl cells to EC50 for HIV1 NL4-3
# Format: toxicity, cell-based
# condition parameters: tzm-bl
experimental endpoint: Ratio CC50/EC50
Field format: numeric only.

1. Cc1cc(C#N)cc(C)c1Oc1ccc(N)c(Nc2ccc(C#N)cc2)n1 | 13206

Recorded Ratio CC50/EC50 (molecule "Cc1cc(/C=C/C#N)cc(C)c1Oc1cc(Nc2ccc(C#N)cc2)c(N)cc1N" ): 3356

Recorded Ratio CC50/EC50 (molecule "Cc1cc(/C=C/C#N)cc(C)c1Oc1ccc(N)c(Nc2ccc(C#N)cc2)c1" ): 45455

====

Below, each of the compounds is paired with its reported log10(CC50) value.
# System: MT2
# protocol description: Cytotoxicity in human MT2 cells after 4 day by XTT assay
# Format: cell-based
# condition parameters: mt2, 96 h
Plainly stated, the numbers are log10 of CC50 given in µM.

1. Cc1cc(C#CC2CC2)cc(C)c1Oc1ccc(N)c(Nc2ccc(C#N)cc2)n1 | 0.76
2. Cc1cc(C(O)C[N+](=O)[O-])cc(C)c1Oc1ccc([N+](=O)[O-])c(Nc2ccc(C#N)cc2)n1 (centres undefined) | 1.43
3. Cc1cc(/C=C/C#N)cc(C)c1Oc1cc(Nc2ccc(C#N)cc2)c(N)cc1[N+](=O)[O-] | 1.95
4. Cc1cc(C#N)cc(C)c1Oc1nc(Nc2ccc(C#N)cc2)nc(N)c1Br | 1.71
5. Cc1cc(/C=C/C(=O)O)cc(C)c1Oc1ccc([N+](=O)[O-])c(Nc2ccc(C#N)cc2)n1 | 1.54
6. Cc1cc(Br)cc(C)c1Oc1ccc(N)c(Nc2ccc(C#N)cc2)n1 | 0.98
7. Cc1cc(/C=C/C(=O)O)cc(C)c1Oc1ccc(N)c(Nc2ccc(C#N)cc2)n1 | 1.20

Next, consider the following compound.
Recorded log10(CC50) (compound "CC(=O)/C=C/c1cc(C)c(Oc2cc(Nc3ccc(C#N)cc3)c(N)cc2[N+](=O)[O-])c(C)c1" ): 1.35

====

# System: Human immunodeficiency virus 1
# protocol description: Resistance index, ratio of EC50 for multidrug resistant HIV1 RTMDR to EC50 for wild type HIV1 NL4-3
# Type: functional
experimental endpoint: Ratio EC50
Field format: numeric only.

Recorded Ratio EC50 (molecule "Cc1cc(C#CC2CC2)cc(C)c1Oc1ccc(N)c(Nc2ccc(C#N)cc2)n1" ): 1.34

Recorded Ratio EC50 (molecule "Cc1cc(/C=C/C#N)cc(C)c1Oc1cc(Nc2ccc(C#N)cc2)c(N)cc1[N+](=O)[O-]" ): 2.29

Recorded Ratio EC50 (molecule "Cc1cc(/C=C/C#N)cc(C)c1Oc1ccc([N+](=O)[O-])c(Nc2ccc(C#N)cc2)n1" ): 1.85

Recorded Ratio EC50 (molecule "Cc1cc(I)cc(C)c1Oc1ccc(N)c(Nc2ccc(C#N)cc2)n1" ): 0.67

Recorded Ratio EC50 (molecule "Cc1cc(/C=C/C#N)cc(C)c1Oc1ccc(N)c(Nc2ccc(C#N)cc2)n1" ): 0.83

====

Below, each of the molecules is paired with its reported EC50 value.
# Tested on: Human immunodeficiency virus 1
# protocol description: Antiviral activity against HIV1 3B infected in human MT2 cells assessed as reduction in p24 antigen level after 4 days by ELISA
# Assay type: functional, organism-based
# condition parameters: Human immunodeficiency virus 1, 3B, MT2, 96 h; read-out: EC50
I only need the number, in nM, no unit after it.

Solved entries:
1. Cc1cc(C#N)cc(C)c1Oc1ccc(N)c(Nc2ccc(C#N)cc2)n1 | 15
2. Cc1cc(/C=C/C(=O)O)cc(C)c1Oc1ccc(N)c(Nc2ccc(C#N)cc2)n1 | 630

Next, consider the following molecule.
Recorded EC50 (molecule "Cc1cc(Br)cc(C)c1Oc1ccc(N)c(Nc2ccc(C#N)cc2)n1" ): 33

====

# protocol description: Selectivity index, ratio of CC50 for human MT2 cells to EC50 for HIV1 3B
# Assay type: toxicity, cell-based
# condition parameters: mt2
experimental endpoint: Ratio CC50/EC50

1. Cc1cc(/C=C/C#N)cc(C)c1Oc1cc(Nc2ccc(C#N)cc2)c(N)cc1N | > 1353

Recorded Ratio CC50/EC50 (compound "Cc1cc(/C=C/C#N)cc(C)c1Oc1ccc([N+](=O)[O-])c(Nc2ccc(C#N)cc2)n1" ): > 2041

Recorded Ratio CC50/EC50 (compound "Cc1cc(/C=C/C#N)cc(C)c1Oc1ccc(N)c(Nc2ccc(C#N)cc2)n1" ): > 402

Recorded Ratio CC50/EC50 (compound "CC(=O)/C=C/c1cc(C)c(Oc2cc(Nc3ccc(C#N)cc3)c([N+](=O)[O-])cc2[N+](=O)[O-])c(C)c1" ): > 286

====

Below, each of the molecules is paired with its reported Ratio CC50/EC50 value.
# protocol description: Selectivity index, ratio of CC50 for human MT2 cells to EC50 for HIV1 3B
# Format: toxicity, cell-based
# condition parameters: mt2

1) Cc1cc(/C=C/C#N)cc(C)c1Oc1cc(Nc2ccc(C#N)cc2)c(N)cc1[N+](=O)[O-] | > 6298

Recorded Ratio CC50/EC50 (molecule "Cc1cc(/C=C/C#N)cc(C)c1Oc1ccc([N+](=O)[O-])c(Nc2ccc(C#N)cc2)c1" ): > 2702

Recorded Ratio CC50/EC50 (molecule "Cc1cc(/C=C/C#N)cc(C)c1Oc1ccc(N)c(Nc2ccc(C#N)cc2)c1" ): > 631

Recorded Ratio CC50/EC50 (molecule "Cc1cc(C#N)cc(C)c1Oc1ccc(N)c(Nc2ccc(C#N)cc2)n1" ): > 6667
